Would you kindly list normalized growth for each of these compounds?
Test: chemical genetic growth profiling, strain panel (AID 1159580);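 also: tested at 20 µM; growth read once vehicle control cultures reached saturation at 30 °C; 1 = growth at the plate median or of vehicle wells; lower values mean less growth of the strain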
Details: S. cerevisiae deletion strains, growth OD, locus YNL250W, strain rad50, active compounds read low
Out of some 5,500 compounds screened, about 2,000 (36%) were called active. About 18% were inconclusive and are not listed. The list shows a part of the results.
# respond with the number and nothing more

Req: May I ask what normalized growth has been recorded for COC(=O)Oc1ccccc1C(=O)O ?
Resp: 1.04

Req: Moving on to the next compound: CSCCC(NC=O)C(=O)NC(C)C(=O)O (stereo not drawn)
Resp: 0.983

Req: Moving on to the next compound: O=C(O)c1ccccc1Nc1cccc(C(F)(F)F)c1
Resp: 0.994

Req: Moving on to the next compound: CCCC(C)C1(CC)C(=O)NC(=O)NC1=O (stereo not drawn)
Resp: 1.02

Req: Moving on to the next compound: C=CC(C)(O)CC/C=C(\C)CCC=C(C)C (stereo not drawn)
Resp: 0.994

Req: Moving on to the next compound: CCN(CC)CCNC(=O)c1cc(S(C)(=O)=O)ccc1OC
Resp: 1.04

Req: Moving on to the next compound: COC(=O)C[C@H]1C(C)(C)C(=O)[C@@H]2CC3=C4CC(=O)O[C@@H](c5ccoc5)[C@]4(C)CCC3[C@@]1(C)C2=O (stereo partly drawn)
Resp: 0.998

Req: Moving on to the next compound: C=CC(C1=CC(=O)C(OC)=CC1=O)c1ccc(O)cc1 (stereo not drawn)
Resp: 0.98

Req: Moving on to the next compound: CC1(C)C(O)CC(O)C2(C)C1CC(=O)C1(C)C2CCC2(C)C(C(=O)O)OC(=O)C3OC321 (stereo not drawn)
Resp: 0.999

Req: Moving on to the next compound: Cc1c(O)c(O)cc2c1CC=C1[C@@]2(C)CC[C@@]2(C)C3C[C@](C)(C(=O)O)CC[C@]3(C)CC[C@]12C (stereo partly drawn)
Resp: 0.972

Req: Moving on to the next compound: CC(C)N(C(=O)SCC(Cl)=C(Cl)Cl)C(C)C
Resp: 0.999

Req: Moving on to the next compound: CC(C)(C)NCC(O)c1ccccc1Cl (stereo not drawn)
Resp: 0.976

Req: Moving on to the next compound: CC(=O)O[C@H]1C[C@@H](OC(C)=O)C(C)(C)C2C[C@@H](OC(C)=O)[C@@]3(C)C4=CC(=O)O[C@@H](c5ccoc5)[C@]4(C)CCC3[C@]21C (stereo partly drawn)
Resp: 1.01

Req: Moving on to the next compound: O[N+]1=CC=CCC1=S.On1ccccc1=S.[Zn]
Resp: 0.0654

Req: Moving on to the next compound: CN[C@H](CC(=O)O)C(=O)O
Resp: 0.941

Req: Moving on to the next compound: O=C1C=CC2=C3c4cc(O)c(O)cc4CC3(O)COC2=C1O (stereo not drawn)
Resp: 1

Req: Moving on to the next compound: O=C1CCCC2C3CC(CN12)[C@@H]1CCCCN1C3 (stereo partly drawn)
Resp: 0.984

Req: Moving on to the next compound: C=CC(C1=CC(=O)C(OC)=CC1=O)c1ccccc1 (stereo not drawn)
Resp: 0.956

Req: Moving on to the next compound: C=C[C@@H](C1=CC(=O)C(OC)=C(OC)C1=O)c1ccccc1
Resp: 0.916

Req: Moving on to the next compound: O=C(O)c1cccnc1Nc1cccc(C(F)(F)F)c1
Resp: 0.9

Req: Moving on to the next compound: COC(=O)[C@]1(C)CC[C@]2(C)CC[C@]3(C)C4=CCc5c(cc(O)c(O)c5C)[C@]4(C)CC[C@@]3(C)C2C1 (stereo partly drawn)
Resp: 0.977

Req: Moving on to the next compound: CC(=O)O[C@@H]1CC2C(C)(C)C(=O)CC[C@]2(C)C2CC[C@]3(C)C(=CC(=O)O[C@H]3c3ccoc3)[C@@]21C (stereo partly drawn)
Resp: 0.992

Req: Moving on to the next compound: C=C[C@](C)(O)CCC=C(C)C
Resp: 1.02

----------
Would you kindly list normalized growth for each of these compounds?
Test: chemical genetic growth profiling, strain panel (AID 1159580);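 also: tested at 20 µM; growth read once vehicle control cultures reached saturation at 30 °C; 1 = growth at the plate median or of vehicle wells; lower values mean less growth of the strain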
Conditions: S. cerevisiae deletion strains, growth OD, locus YER110C, active compounds read low
About 2,000 (36%) of roughly 5,500 compounds were called active. About 18% were inconclusive and are not listed. This is one part of the list.
# respond with the number and nothing more

Req: May I ask what normalized growth has been recorded for C/C=C/c1ccc2c(c1)OCO2 ?
Resp: 1.01

Req: Moving on to the next compound: CCCCC1(COC(=O)CCC(=O)O)C(=O)N(c2ccccc2)N(c2ccccc2)C1=O
Resp: 1.02

Req: Moving on to the next compound: COC(=O)[C@]1(C)CC[C@]2(C)CC[C@]3(C)C4=CCc5c(cc(O)c(O)c5C)[C@]4(C)CC[C@@]3(C)C2C1 (stereo partly specified)
Resp: 0.978

Req: Moving on to the next compound: O=C(O[C@@H]1Cc2c(O)cc(O)cc2O[C@@H]1c1cc(O)c(O)c(O)c1-c1c([C@H]2Oc3cc(O)cc(O)c3C[C@H]2O)cc(O)c(O)c1O)c1cc(O)c(O)c(O)c1
Resp: 0.992

Req: Moving on to the next compound: CN1C(CC(=O)c2ccccc2)CCCC1CC(O)c1ccccc1 (stereo unspecified)
Resp: 0.981

Req: Moving on to the next compound: CS(=O)(=O)CCCCN=C=S
Resp: 0.807

----------
Would you kindly list normalized growth for each of these compounds?
Assay: chemical genetic growth profiling, strain panel (AID 1159580);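 also: tested at 20 µM; growth read once vehicle control cultures reached saturation at 30 °C; 1 = growth at the plate median or of vehicle wells; lower values mean less growth of the strain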
Conditions: S. cerevisiae deletion strains, growth OD, locus YJR016C, strain ILV3, active compounds read low
Screen size: about 5,500 compounds; about 2,000 (36%) were called active. Inconclusive results (about 18%) are left out. Some of the results follow.
# respond with the number and nothing more

Req: May I ask what normalized growth has been recorded for CC(C)c1ccc(NC(=S)NC(=O)c2ccccc2)cc1 ?
Resp: 0.958

Req: Moving on to the next compound: CSc1ccc(/C=C(\C)[N+](=O)[O-])cc1
Resp: 0.0861

Req: Moving on to the next compound: CCCc1c(C(=O)Sc2ccccn2)cnn1-c1ccc(Cl)cc1
Resp: 0.955

Req: Moving on to the next compound: O=C(NCc1ccncc1)c1ccc(-n2cccn2)cc1
Resp: 0.984

Req: Moving on to the next compound: Cc1nn(Cc2ccc(C(=O)Sc3ccc(C(F)(F)F)cn3)o2)c(C)c1Br
Resp: 0.955

Req: Moving on to the next compound: O=c1c(Cl)c(-n2cccn2)cnn1-c1ccc(Cl)cc1Cl
Resp: 0.932

Req: Moving on to the next compound: N#CCC(=O)NNC(=S)Nc1ccc(Cl)c(Cl)c1
Resp: 0.978

Req: Moving on to the next compound: COC(=O)C1=C(C)NC(C)=C(C(=O)OC)C1c1ccc(Cl)cc1Cl
Resp: 0.972

Req: Moving on to the next compound: O=[N+]([O-])c1cc(Br)cnc1Sc1nnc(SCC2CC2)s1
Resp: 0.944

Req: Moving on to the next compound: CCOc1ccc(/C=C(\C)[N+](=O)[O-])cc1OC
Resp: 0.985

Req: Moving on to the next compound: CCOC(=O)/C(=N/Nc1c(Cl)cccc1Cl)c1csc(N)n1
Resp: 0.976

Req: Moving on to the next compound: CCCc1c(C(=O)NNc2cccc(Cl)c2)cnn1-c1ccccc1
Resp: 0.986

Req: Moving on to the next compound: Fc1cccc(Cl)c1CSc1nncn1-c1ccc(OCc2ccccc2)cc1
Resp: 0.997

Req: Moving on to the next compound: O=C(NC(=O)c1c(F)cccc1Cl)OCc1ccc(Cl)cc1Cl
Resp: 0.974

Req: Moving on to the next compound: Fc1cccc(F)c1NC(=S)Nc1cc(C(F)(F)F)cc(C(F)(F)F)c1
Resp: 0.979

Req: Moving on to the next compound: O=C(NCCSCc1cccc(C(F)(F)F)c1)c1ccc(Cl)cc1
Resp: 0.959

Req: Moving on to the next compound: O=C(NCCSCc1ccco1)Nc1cc(Cl)cc(Cl)c1
Resp: 0.96

Req: Moving on to the next compound: FC(F)(F)c1cccc(NC(=S)Nc2csc(C(F)(F)F)c2-c2ccccc2)c1
Resp: 0.984

Req: Moving on to the next compound: CC(=O)Nc1ccc(/C=C/[N+](=O)[O-])cc1
Resp: 0.981

Req: Moving on to the next compound: CC(C)c1ccc(N2C=Nc3ccc(C(C)C)cc3C2)cc1
Resp: 1

Req: Moving on to the next compound: NC(=Nc1ccc(F)cc1)SCc1c(Cl)cccc1Cl
Resp: 0.991

Req: Moving on to the next compound: Cc1cc(Cl)ccc1NC(=S)NNC(=S)Nc1ccc(F)cc1
Resp: 0.96

Req: Moving on to the next compound: Cc1cccc(Cl)c1/C=N\NC(N)=S
Resp: 0.885

Req: Moving on to the next compound: CCCc1c(C(=O)NC2Cc3ccccc3C2)cnn1-c1ccccc1
Resp: 0.98

Req: Moving on to the next compound: O=[N+]([O-])/C=C/c1ccc(F)cc1
Resp: 0.0868

Req: Moving on to the next compound: O=C(Nc1ccc(C(F)(F)F)cc1)N1CCN(c2ccnc3cc(Cl)ccc23)CC1
Resp: 0.993

Req: Moving on to the next compound: O=C(NC(=S)Nc1cccc(C(F)(F)F)c1)c1ccc2nonc2c1
Resp: 0.93

Req: Moving on to the next compound: O=C(Nc1ccc(N2CCOCC2)cc1)c1ccc(-n2cccn2)cc1
Resp: 0.986

Provenance of the data: PubChem BioAssay AID1159580
